Listed here are compounds together with their documented cAMP production activity (%).
Target: human PTH1 receptor (Homo sapiens, UniProt Q03431)
Assay: In vitro cAMP signal activity in HKRK-B7 cells (LLC-PK1 cells overexpressing the human PTH1 receptor)
Assay type: cell-based
Settings: HKRK-B7 cells; compound at 1×10^−3 M; cAMP produced as percentage of that produced by hPTH(1-34) at 100 nM
READOUT: cAMP production activity (%)

                                   compound  display_unit  observed_result
0  Cc1cc2ccc1CCS(=O)(=O)N1CCC3(CC1)N=C(NC3=O)c1ccc(C(F)(F)F)c(c1)OCCCCCOCCN(C)C2=O             %               18
1  Cc1cc(C(=O)N2CCC(C)(O)CC2)cc(C)c1/C=C/S(=O)(=O)N1CCC2(CC1)N=C(c1ccc(C(F)(F)F)c(Cl)c1)NC2=O             %               99
2  COCc1cc(NC(C)=O)ccc1/C=C/S(=O)(=O)N1CCC2(CC1)N=C(C1CCC(C)CC1)NC2=O (stereo not shown)             %               49
3  CC(=O)N(C)c1c(C)cc(/C=C/S(=O)(=O)N2CCC3(CC2)N=C(C2CCC(C)CC2)NC3=O)cc1C (stereo not shown)             %               24

----------
Molecular target: human PTH1 receptor (Homo sapiens)
Assay: In vitro cAMP signal activity in HKRK-B7 cells (LLC-PK1 cells overexpressing the human PTH1 receptor)
Type: cell-based
Details: HKRK-B7 cells; compound at 1×10^−3 M; cAMP produced as percentage of that produced by hPTH(1-34) at 100 nM
Mark no for cAMP production activity (%) values under 40%, and yes for everything at or above.

                              record_smiles  answer_label
0  Cc1cc(C(=O)N(C)C)cc(C)c1/C=C/S(=O)(=O)N1CCC2(CC1)N=C(c1cccc(OC(F)(F)F)c1)NC2=O           yes
1  O=C1NC(C2CCCCC2)=NC12CCN(S(=O)(=O)/C=C/c1nccs1)CC2            no
2  Cc1cc(S(=O)(=O)N2CCC3(CC2)N=C(C2CCCCC2)NC3=O)c(C)s1           yes
3  CC(=O)N(CCO)c1ccc(/C=C/S(=O)(=O)N2CCC3(CC2)N=C(c2cccc(OC(F)(F)F)c2)NC3=O)c(C)c1           yes
4  CN(C)C(=O)c1ccc(/C=C/S(=O)(=O)N2CCC3(CC2)N=C(c2cccc(OC(F)(F)F)c2)NC3=O)c(F)c1            no
5  CC[C@H]1CC[C@H](C2=NC3(CCN(S(=O)(=O)CCc4ccc(N5CC(=O)NC5=O)cc4C)CC3)C(=O)N2)CC1            no
6  Cc1cc(C(=O)N2CCC(C)(O)CC2)cc(C)c1/C=C/S(=O)(=O)N1CCC2(CC1)N=C(c1ccc(F)c(C)c1C)NC2=O           yes

----------
Molecular target: human PTH1 receptor (Homo sapiens, UniProt Q03431)
Assay: In vitro cAMP signal activity in HKRK-B7 cells (LLC-PK1 cells overexpressing the human PTH1 receptor)
Type: cell-based
Conditions: HKRK-B7 cells; compound at 1×10^−3 M; cAMP produced as percentage of that produced by hPTH(1-34) at 100 nM
Returns: string. Value is 1 if measured cAMP production activity (%) is below 70%, and -1 if it is greater than or equal to it.

In [3]: df
Out[3]:
                                    compound  answer_label
 0  CC(=O)NNC(=O)c1cc(C)c(/C=C/S(=O)(=O)N2CCC3(CC2)N=C(C2CCC(CCC(F)(F)F)CC2)NC3=O)c(C)c1 (centres unmarked) [Compound 552]             1
 1  Cc1cc(N(C)C(N)=O)cc(C)c1/C=C/S(=O)(=O)N1CCC2(CC1)N=C(CCCCCCCCCCCN)NC2=O [Compound 1315]            -1
 2  Cc1cc(CC(N)=O)ccc1/C=C/S(=O)(=O)N1CCC2(CC1)N=C(C1CCC(C)CC1)NC2=O (centres unmarked) [Compound 737]            -1
 3  Cc1cccc(NCCO)c1/C=C/S(=O)(=O)N1CCC2(CC1)N=C(C1CCCCC1)NC2=O [Compound 200]             1
 4  CCC1CCC(C2=NC3(CCN(S(=O)(=O)CCc4ccc(NC(C)=O)c(Cl)c4C)CC3)C(=O)N2)CC1 (centres unmarked) [Compound 954]            -1
 5  Cc1cc(C(=O)N2CCCO2)cc(C)c1CCS(=O)(=O)N1CCC2(CC1)N=C(C1CCC(C)CC1)NC2=O (centres unmarked) [Compound 1182]            -1
 6  Cc1cc(C(=O)N2CCCC2)cc(C)c1/C=C/S(=O)(=O)N1CCC2(CC1)N=C(c1cccc(C(F)(F)F)c1)NC2=O [Compound 388]            -1
 7  CC(=O)NCCNS(=O)(=O)c1ccc(CCS(=O)(=O)N2CCC3(CC2)N=C(C2CCCCC2)NC3=O)c(C)c1 [Compound 664]            -1
 8  Cc1cc(C(=O)N(C)CC(=O)O)cc(C)c1/C=C/S(=O)(=O)N1CCC2(CC1)N=C(c1cccc(C(F)(F)F)c1)NC2=O [Compound 452]             1
 9  COc1c(N(C)C(N)=O)cc(C)c(CCS(=O)(=O)N2CCC3(CC2)N=C([C@H]2CC[C@H](C)CC2)NC3=O)c1C [Compound 684]            -1
10  Cc1cc(C(=O)N2CCC(O)(CF)CC2)cc(C)c1/C=C/S(=O)(=O)N1CCC2(CC1)N=C(c1ccc(F)c(OCCCF)c1)NC2=O [Compound 1264]            -1
11  CC(=O)Nc1ccc(CCS(=O)(=O)N2CCC3(CC2)N=C(c2cccc(C(F)(F)F)c2)NC3=O)c(C)c1 [Compound 298]             1
12  COc1cccc(/C=C/S(=O)(=O)N2CCC3(CC2)N=C([C@H]2CC[C@H](C)CC2)NC3=O)c1C [Compound 585]             1

----------
Biological target: UniProt:Q03431
Sequence (Q03431 27-593): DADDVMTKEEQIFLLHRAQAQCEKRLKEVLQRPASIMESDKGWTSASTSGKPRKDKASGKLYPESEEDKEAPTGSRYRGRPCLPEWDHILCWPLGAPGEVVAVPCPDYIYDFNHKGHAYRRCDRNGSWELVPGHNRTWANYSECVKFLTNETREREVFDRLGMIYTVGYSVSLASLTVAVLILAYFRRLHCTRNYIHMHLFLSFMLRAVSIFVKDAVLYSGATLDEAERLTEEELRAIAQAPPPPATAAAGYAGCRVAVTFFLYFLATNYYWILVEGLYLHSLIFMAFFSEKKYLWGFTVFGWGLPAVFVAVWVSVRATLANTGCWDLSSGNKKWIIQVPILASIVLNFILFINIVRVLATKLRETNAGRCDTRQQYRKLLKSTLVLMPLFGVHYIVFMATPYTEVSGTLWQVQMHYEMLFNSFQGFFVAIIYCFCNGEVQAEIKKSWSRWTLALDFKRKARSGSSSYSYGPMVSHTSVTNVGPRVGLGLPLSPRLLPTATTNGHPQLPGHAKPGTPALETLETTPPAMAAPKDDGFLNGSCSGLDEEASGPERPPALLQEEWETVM
Experiment: In vitro cAMP signal activity in HKRK-B7 cells (LLC-PK1 cells overexpressing the human PTH1 receptor)
Format: cell-based
Conditions: HKRK-B7 cells; compound at 1×10^−3 M; cAMP produced as percentage of that produced by hPTH(1-34) at 100 nM
READOUT: cAMP production activity (%)

>>> df
                                   molecule  subject_of_test                       readout  observed_result
0  Cc1cc2nc(N)oc2c(C)c1CCS(=O)(=O)N1CCC2(CC1)N=C(C1CCC(C)CC1)NC2=O (stereo not shown)   UniProt:Q03431  cAMP production activity (%)               84
1  CCCCCCCCCC1=NC2(CCN(S(=O)(=O)CCc3ccc(N(CCO)S(C)(=O)=O)cc3C)CC2)C(=O)N1   UniProt:Q03431  cAMP production activity (%)               82
2  Cc1cc(N2CCCCC2=O)cc(C)c1/C=C/S(=O)(=O)N1CCC2(CC1)N=C(C1CCC(C)CC1)NC2=O (stereo not shown)   UniProt:Q03431  cAMP production activity (%)               73
3  Cc1cc(C(=O)N2CCC(O)(CF)CC2)cc(C)c1/C=C/S(=O)(=O)N1CCC2(CC1)N=C(c1ccc(C(F)(F)C(F)(F)F)cc1)NC2=O   UniProt:Q03431  cAMP production activity (%)               96
